Biological target: HIF-2α (Homo sapiens, UniProt Q99814)
Sequence (Q99814 whole entry): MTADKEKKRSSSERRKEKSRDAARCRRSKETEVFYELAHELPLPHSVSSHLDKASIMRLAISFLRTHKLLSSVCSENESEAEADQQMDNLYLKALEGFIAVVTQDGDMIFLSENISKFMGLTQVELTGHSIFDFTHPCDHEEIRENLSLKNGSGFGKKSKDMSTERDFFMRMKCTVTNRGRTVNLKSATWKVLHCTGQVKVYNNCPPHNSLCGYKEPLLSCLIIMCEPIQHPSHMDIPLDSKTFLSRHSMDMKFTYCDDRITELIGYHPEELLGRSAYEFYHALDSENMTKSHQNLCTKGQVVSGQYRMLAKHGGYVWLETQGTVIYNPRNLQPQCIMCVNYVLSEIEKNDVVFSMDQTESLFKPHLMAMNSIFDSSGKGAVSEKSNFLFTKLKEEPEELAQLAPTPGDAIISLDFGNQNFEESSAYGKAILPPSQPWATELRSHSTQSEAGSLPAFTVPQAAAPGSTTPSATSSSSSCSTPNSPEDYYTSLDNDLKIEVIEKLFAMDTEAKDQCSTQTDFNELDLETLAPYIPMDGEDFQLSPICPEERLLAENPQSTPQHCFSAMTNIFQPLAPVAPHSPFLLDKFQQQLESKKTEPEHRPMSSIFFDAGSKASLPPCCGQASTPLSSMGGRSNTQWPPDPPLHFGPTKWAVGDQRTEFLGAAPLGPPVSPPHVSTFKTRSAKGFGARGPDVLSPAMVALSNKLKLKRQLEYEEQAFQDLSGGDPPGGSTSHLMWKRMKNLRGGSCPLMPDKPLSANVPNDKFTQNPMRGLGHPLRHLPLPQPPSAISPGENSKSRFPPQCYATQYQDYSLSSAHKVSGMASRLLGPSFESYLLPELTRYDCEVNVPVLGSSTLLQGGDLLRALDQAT
Assay: HIF-2α Luciferase Reporter Assay (serum free) in HIF-Luc-786-0 cells
Assay type: cell-based
Details: Opti-MEM, 786-0 reporter cells, 20 hours incubation
Experimental: Generation of HIF-2α Luciferase 786-0 Cell Line: Stable cell lines were generated by transducing 786-0 cells (ATCC, CRL-1932) with Cignal Lenti HIF Luc Reporter lentivirus (CLS-007L, Qiagen) according to the manufacturer's guidelines. In brief, 0.3×10^6 786-0 cells were transduced with lentivirus at a multiplicity of infection (MOI) of 25 for 24 hours. […]
pIC50: −log10 of the molar value.
Entries and their pIC50 values follow.

compound=O[C@H]1c2c(C(F)(F)F)nn(CCCC(F)(F)F)c2CC[C@@H]1F recorded_result="6.00 to 7.00"
compound="CC(C#N)CCn1nc(C(F)(F)F)c2c1CC(F)(F)[C@H]2O (some centres unmarked)" recorded_result="6.00 to 7.00"
compound=CC(C)(C#N)CCn1nc(C(F)(F)F)c2c1CCC(F)(F)[C@H]2O recorded_result="< 6.00"
compound="O[C@H]1c2c(C(F)(F)F)nn([C@@H]3C[C@@H](F)[C@@H](F)[C@@H](F)C3)c2[C@@H](F)C1(F)F (single isomer, unassigned) [146/147 DIAST-2]" recorded_result="> 7.00"

For the compound shown here, O[C@H]1c2c(C(F)(F)F)nn(CCCOC(F)(F)F)c2C[C@@H]1F , give the reported pIC50.
6.00 to 7.00

For the compound shown here, O[C@H]1c2c(C(F)(F)F)nn(CCC(F)(F)F)c2CCC1(F)F , give the reported pIC50.
6.00 to 7.00

For the compound shown here, O[C@H]1c2c(C(F)(F)F)nn([C@@H]3C[C@@H](F)[C@@H](F)[C@@H](F)C3)c2CC1(F)F , give the reported pIC50.
6.00 to 7.00

For the compound shown here, O[C@H]1c2c(C(F)(F)F)nn(C3CCC(F)(F)CC3)c2CCC1(F)F , give the reported pIC50.
6.00 to 7.00

----------
biological target: HIF-2α (Homo sapiens); experiment: HIF-2α Luciferase Reporter Assay (serum free) in HIF-Luc-786-0 cells; format: cell-based; conditions: Opti-MEM, 786-0 reporter cells, 20 hours incubation
pIC50: −log10 of the molar value.
Metric name: pIC50

Reference set, count: 3
compound=O[C@H]1c2c(C(F)(F)F)nn(-c3ccc(F)cc3)c2CC1(F)F metric_name=pIC50 recorded_result="6.00 to 7.00"
compound="O[C@H]1c2c(C(F)(F)F)nn(C3CC4(C3)CC(F)(F)C4)c2[C@@H](F)[C@@H]1F (single isomer, unassigned)" metric_name=pIC50 recorded_result="> 7.00"
compound=O[C@H]1c2c(C(F)(F)F)nn(C[C@H]3C[C@H](F)C3)c2CCC1(F)F metric_name=pIC50 recorded_result="< 6.00"

For the compound shown here, O[C@H]1c2c(C(F)(F)F)nn(CCC3(C(F)(F)F)CC3)c2CCC1(F)F , give the reported pIC50.
6.00 to 7.00

----------
target: HIF-2α (Homo sapiens, UniProt Q99814); assay: HIF-2α Luciferase Reporter Assay (serum), HRE-luciferase 786-0 cells in 100% human serum; type: cell-based; conditions: ratio of IC50 in 100% serum to IC50 in serum free conditions; approximate
Label 1 (yes) when Serum Shift (approximate) is at or above 6; anything below gets 0 (no).

Sample answers from the record:
compound=CO[C@H](CCn1nc(C(F)(F)F)c2c1[C@@H](F)[C@@H](F)[C@H]2O)C(F)(F)F qualitative_label="0 (no)"
compound=O[C@H]1c2c(C(F)(F)F)nn([C@H]3C[C@]4(CC4(F)F)C3)c2CC1(F)F qualitative_label="1 (yes)"
compound="O[C@H]1c2c(C(F)(F)F)nn(CCCC(F)(F)F)c2[C@H](F)C1(F)F (single isomer, unassigned)" qualitative_label="1 (yes)"
compound=O=S1(=O)CC(Cn2nc(C(F)(F)F)c3c2C[C@@H](F)[C@H]3O)C1 qualitative_label="0 (no)"

Continue with the next compound.
Can O[C@H]1c2c(C(F)(F)F)nn(-c3ccc(Cl)cc3)c2CC1(F)F be said to have Serum Shift (approximate) at or above 6?
1 (yes)

----------
Entries and their Serum Shift (approximate) values follow.
target: HIF-2α (Homo sapiens, UniProt Q99814); test: HIF-2α Luciferase Reporter Assay (serum), HRE-luciferase 786-0 cells in 100% human serum; type: cell-based; settings: ratio of IC50 in 100% serum to IC50 in serum free conditions; approximate
Please respond with just the number, no unit label.

Reference set, count: 3
molecule="O=S1(=O)CC(Cn2nc(C(F)(F)F)c3c2[C@H](F)C(F)(F)[C@H]3O)C1 (single isomer, unassigned) [144/145 DIAST-1]" recorded_result=3
molecule=O[C@H]1c2c(C(F)(F)F)nn(CCC(F)(F)F)c2CCC1(F)F recorded_result=9
molecule=O[C@H]1c2c(C(F)(F)F)nn([C@H]3C[C@@H](COC(F)F)C3)c2CC1(F)F recorded_result=7

Here's the next entry for you.
For the molecule shown here, O[C@H]1c2c(C(F)(F)F)nn(C3CC4(C3)CC(F)(F)C4)c2[C@H](F)[C@H]1F (single isomer, unassigned) , give the reported Serum Shift (approximate).
12

----------
Entries and their IC50 values follow.
biological target: HIF-2α (Homo sapiens, UniProt Q99814); experiment: HIF-2α Luciferase Reporter Assay (serum free) in HIF-Luc-786-0 cells; format: cell-based; settings: Opti-MEM, 786-0 reporter cells, 20 hours incubation

Reference set, count: 8
compound="O[C@H]1c2c(C(F)(F)F)nn(C3CCO[C@H](C(F)(F)F)C3)c2CC1(F)F (single isomer, unassigned) [94/95 DIAST-2]" recorded_result="< 100 nM"
compound="O[C@H]1c2c(C(F)(F)F)nn([C@H]3CC[C@H](F)[C@H](F)C3)c2[C@H](F)C1(F)F (single isomer, unassigned)" recorded_result="> 1000 nM"
compound="O[C@H]1c2c(C(F)(F)F)nn(CCCOC(F)(F)F)c2[C@@H](F)CC1(F)F (single isomer, unassigned) [129/130 DIAST-1]" recorded_result="100 to 1000 nM"
compound=C[C@H](C#N)CCn1nc(C(F)(F)F)c2c1CCC(F)(F)[C@H]2O recorded_result="100 to 1000 nM"
compound=O[C@H]1c2c(C(F)(F)F)nn(-c3ccc(F)c(F)c3)c2CC1(F)F recorded_result="100 to 1000 nM"
compound=O[C@H]1c2c(C(F)(F)F)nn(CCOC(F)(F)F)c2CCC1(F)F recorded_result="> 1000 nM"
compound="O[C@H]1c2c(C(F)(F)F)nn([C@@H]3CCO[C@@H](C(F)(F)F)C3)c2CC1(F)F (single isomer, unassigned) [92/93 DIAST-1]" recorded_result="< 100 nM"
compound=CO[C@H](CCn1nc(C(F)(F)F)c2c1CC(F)(F)[C@H]2O)C(F)(F)F recorded_result="< 100 nM"

For the compound shown here, C[C@]1(OC(F)F)C[C@@H](Cn2nc(C(F)(F)F)c3c2CCC(F)(F)[C@H]3O)C1 , give the reported IC50.
> 1000 nM

For the compound shown here, OC(CCn1nc(C(F)(F)F)c2c1CCC(F)(F)[C@H]2O)C(F)(F)F (stereo partly shown) , give the reported IC50.
100 to 1000 nM

For the compound shown here, O[C@H]1c2c(C(F)(F)F)nn(CCOC3CC3(F)F)c2CCC1(F)F (stereo partly shown) , give the reported IC50.
> 1000 nM

For the compound shown here, CO[C@H]1C[C@@H](n2nc(C(F)(F)F)c3c2CC(F)(F)[C@H]3O)CCC1(F)F (racemic) , give the reported IC50.
100 to 1000 nM

For the compound shown here, CS(=O)(=O)CCn1nc(C(F)(F)F)c2c1CC(F)(F)[C@H]2O , give the reported IC50.
100 to 1000 nM

For the compound shown here, CCO[C@H](CCn1nc(C(F)(F)F)c2c1CC(F)(F)[C@H]2O)C(F)(F)F , give the reported IC50.
< 100 nM

----------
target: UniProt Q99814; assay: HIF-2α Luciferase Reporter Assay (serum), HRE-luciferase 786-0 cells in 100% human serum; format: cell-based; conditions: 100% human serum, 786-0 reporter cells, overnight incubation; read-out: Serum Potency
Entries and their IC50 values follow.

Reference set, count: 3
compound=O[C@H]1c2c(C(F)(F)F)nn(CCCOC(F)(F)F)c2C[C@H]1F recorded_result="0.1 to 1 µM"
compound="CO[C@H]1C[C@H](n2nc(C(F)(F)F)c3c2CC(F)(F)[C@H]3O)CCC1(F)F (racemic)" recorded_result="> 1 µM"
compound=O=S1(=O)CC(Cn2nc(C(F)(F)F)c3c2CCC(F)(F)[C@H]3O)C1 recorded_result="0.1 to 1 µM"

For the compound shown here, O[C@H]1c2c(C(F)(F)F)nn(C3CCC(F)(F)CC3)c2[C@@H](F)[C@H]1F , give the reported IC50.
> 1 µM

For the compound shown here, O[C@H]1c2c(C(F)(F)F)nn(C3CC[C@H](F)[C@H](F)C3)c2CC1(F)F (single isomer, unassigned) [72/73 DIAST-2] , give the reported IC50.
0.1 to 1 µM

For the compound shown here, CC(C#N)CCn1nc(C(F)(F)F)c2c1CCC(F)(F)[C@H]2O (some centres unmarked) , give the reported IC50.
0.1 to 1 µM

For the compound shown here, O[C@H]1c2c(C(F)(F)F)nn([C@@H]3C[C@H](F)C[C@H](F)C3)c2CC1(F)F , give the reported IC50.
0.1 to 1 µM

For the compound shown here, O[C@H]1c2c(C(F)(F)F)nn([C@H]3CC[C@H](F)CC3)c2CC1(F)F , give the reported IC50.
> 1 µM
